These records show pKi for UniProtKB Q12809.
Sequence (Q12809 whole entry): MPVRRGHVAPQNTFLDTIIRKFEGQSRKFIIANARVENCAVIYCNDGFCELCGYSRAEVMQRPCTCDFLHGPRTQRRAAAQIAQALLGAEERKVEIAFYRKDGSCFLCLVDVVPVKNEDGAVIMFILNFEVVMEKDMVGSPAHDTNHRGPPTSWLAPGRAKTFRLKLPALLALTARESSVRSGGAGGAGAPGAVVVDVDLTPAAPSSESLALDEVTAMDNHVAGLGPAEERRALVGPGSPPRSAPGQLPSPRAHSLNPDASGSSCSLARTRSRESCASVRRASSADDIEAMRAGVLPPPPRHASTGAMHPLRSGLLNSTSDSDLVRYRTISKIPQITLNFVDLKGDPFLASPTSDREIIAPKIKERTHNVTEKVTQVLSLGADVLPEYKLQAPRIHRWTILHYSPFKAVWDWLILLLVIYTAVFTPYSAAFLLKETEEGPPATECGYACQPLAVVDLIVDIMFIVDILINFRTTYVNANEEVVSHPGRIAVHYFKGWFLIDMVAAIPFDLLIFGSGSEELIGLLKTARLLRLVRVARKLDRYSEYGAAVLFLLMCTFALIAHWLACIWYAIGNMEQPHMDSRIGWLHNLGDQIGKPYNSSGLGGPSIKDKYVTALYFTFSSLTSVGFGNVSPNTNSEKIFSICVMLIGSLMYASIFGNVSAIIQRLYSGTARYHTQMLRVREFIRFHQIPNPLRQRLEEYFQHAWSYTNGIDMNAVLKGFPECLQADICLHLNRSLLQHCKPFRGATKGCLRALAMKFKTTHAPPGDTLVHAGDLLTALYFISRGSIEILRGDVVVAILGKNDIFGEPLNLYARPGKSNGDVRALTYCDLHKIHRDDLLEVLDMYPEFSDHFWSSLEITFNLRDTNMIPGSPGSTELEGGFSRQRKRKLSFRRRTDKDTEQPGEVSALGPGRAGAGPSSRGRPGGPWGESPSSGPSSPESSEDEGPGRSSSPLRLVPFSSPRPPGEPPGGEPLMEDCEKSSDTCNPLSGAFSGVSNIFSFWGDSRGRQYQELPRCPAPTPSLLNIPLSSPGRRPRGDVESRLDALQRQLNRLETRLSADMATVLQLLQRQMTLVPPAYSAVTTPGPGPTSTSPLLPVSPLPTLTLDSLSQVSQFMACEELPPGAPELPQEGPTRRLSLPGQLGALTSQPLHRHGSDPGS
pKi: −log10 of the molar value.

Please review the entries below; each comes with its answer.
- structureString: "C[C@@H](O[C@H]1CCN(C)C(=O)C[C@@H]1c1ccc(F)cc1)c1cc(C(F)(F)F)cc(C(F)(F)F)c1"
  targetUnderTest: "UniProtKB Q12809"
  pKi: "< 5.05"
- structureString: "C[C@@H](O[C@H]1CCn2c(O)nnc2C[C@@H]1c1ccc(F)cc1)c1cc(C(F)(F)F)cc(C(F)(F)F)c1"
  targetUnderTest: "UniProtKB Q12809"
  pKi: "< 5.05"
- structureString: "C[C@@H]1C[C@H](O[C@H](C)c2cc(C(F)(F)F)cc(C(F)(F)F)c2)[C@@H](c2ccc(F)cc2)CNC1=O"
  targetUnderTest: "UniProtKB Q12809"
  pKi: 5.62
- structureString: "C[C@@H]1C[C@H](O[C@H](C)c2cc(C(F)(F)F)cc(C(F)(F)F)c2)[C@@H](c2ccc(F)cc2)CC(=O)N1C"
  targetUnderTest: "UniProtKB Q12809"
  pKi: "< 5.05"
- structureString: "C[C@@H](O[C@H]1CCn2ccnc2C[C@@H]1c1ccc(F)cc1)c1cc(C(F)(F)F)cc(C(F)(F)F)c1"
  targetUnderTest: "UniProtKB Q12809"
  pKi: 5.85
- structureString: "C[C@@H]1NC(=O)CC[C@H](O[C@H](C)c2cc(C(F)(F)F)cc(C(F)(F)F)c2)[C@H]1c1ccc(F)cc1"
  targetUnderTest: "UniProtKB Q12809"
  pKi: "< 5.05"
- structureString: "C[C@@H](O[C@H]1CCC(=O)NC[C@@H]1c1ccc(F)cc1)c1cc(C(F)(F)F)cc(C(F)(F)F)c1"
  targetUnderTest: "UniProtKB Q12809"
  pKi: "< 5.05"
- structureString: "C[C@@H](O[C@H]1CCNC(=O)C[C@@H]1c1ccc(F)cc1)c1cc(C(F)(F)F)cc(C(F)(F)F)c1"
  targetUnderTest: "UniProtKB Q12809"
  pKi: "< 5.05"

Which pKi is listed for C[C@@H](O[C@H]1CCC(=O)N(C)[C@@H](C)[C@@H]1c1ccc(F)cc1)c1cc(C(F)(F)F)cc(C(F)(F)F)c1 ?
5.17

====

- protocolText: Clearance in rat
- Type: ADME, organism-based
- conditionParameters: in vivo
assayMetric: clearance
Put down the number, then write its unit next to it.

Which clearance is listed for C[C@@H](O[C@H]1CCC(=O)NC[C@@H]1c1ccc(F)cc1)c1cc(C(F)(F)F)cc(C(F)(F)F)c1 ?
33 mL/min/kg

====

- protocolText: Half life in rat
- Type: ADME, organism-based
- conditionParameters: in vivo
assayMetric: half-life (h)
Please state the figure in h; there is no need to write the unit.

Which half-life is listed for C[C@@H](O[C@H]1CCC(=O)NC[C@@H]1c1ccc(F)cc1)c1cc(C(F)(F)F)cc(C(F)(F)F)c1 ?
5.6

====

- targetUnderTest: Substance-P receptor (Homo sapiens)
- Sequence (P25103 whole entry): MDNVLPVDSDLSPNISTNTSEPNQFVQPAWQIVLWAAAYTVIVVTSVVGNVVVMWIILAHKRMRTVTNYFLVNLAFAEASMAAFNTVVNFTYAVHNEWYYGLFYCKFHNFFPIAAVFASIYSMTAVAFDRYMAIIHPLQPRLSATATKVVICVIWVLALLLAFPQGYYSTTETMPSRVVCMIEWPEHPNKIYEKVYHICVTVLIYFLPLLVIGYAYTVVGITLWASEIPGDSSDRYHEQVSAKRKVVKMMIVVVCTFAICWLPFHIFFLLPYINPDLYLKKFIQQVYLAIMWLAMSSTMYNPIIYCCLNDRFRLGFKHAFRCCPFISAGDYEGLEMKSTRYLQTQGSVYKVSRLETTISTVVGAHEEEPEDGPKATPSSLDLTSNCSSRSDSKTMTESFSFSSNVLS
- protocolText: Displacement of [125I] labeled substance P from human cloned NK1 receptor expressed in CHO cells
Each record is given Y if its reported IC50 is strictly below 0.3 nM. Records at or above 0.3 nM are given N.

- structureString: "C[C@@H](O[C@H]1CCC(=O)N(C)C[C@@H]1c1ccc(F)cc1)c1cc(C(F)(F)F)cc(C(F)(F)F)c1"
  targetUnderTest: "Substance-P receptor (Homo sapiens)"
  groupLabel: "Y"
- structureString: "C[C@@H](O[C@H]1CCC(=O)NC[C@@H]1c1ccc(F)cc1)c1cc(C(F)(F)F)cc(C(F)(F)F)c1"
  targetUnderTest: "Substance-P receptor (Homo sapiens)"
  groupLabel: "Y"
- structureString: "C[C@@H](O[C@H]1CCN(C)C(=O)C[C@@H]1c1ccc(F)cc1)c1cc(C(F)(F)F)cc(C(F)(F)F)c1"
  targetUnderTest: "Substance-P receptor (Homo sapiens)"
  groupLabel: "N"
- structureString: "C[C@@H]1C[C@H](O[C@H](C)c2cc(C(F)(F)F)cc(C(F)(F)F)c2)[C@@H](c2ccc(F)cc2)CC(=O)N1"
  targetUnderTest: "Substance-P receptor (Homo sapiens)"
  groupLabel: "N"
- structureString: "C[C@@H]1C[C@H](O[C@H](C)c2cc(C(F)(F)F)cc(C(F)(F)F)c2)[C@@H](c2ccc(F)cc2)CNC1=O"
  targetUnderTest: "Substance-P receptor (Homo sapiens)"
  groupLabel: "Y"
- structureString: "C[C@@H](O[C@H]1CCNC(=O)C[C@@H]1c1ccc(F)cc1)c1cc(C(F)(F)F)cc(C(F)(F)F)c1"
  targetUnderTest: "Substance-P receptor (Homo sapiens)"
  groupLabel: "N"
- structureString: "C[C@@H]1C[C@H](O[C@H](C)c2cc(C(F)(F)F)cc(C(F)(F)F)c2)[C@@H](c2ccc(F)cc2)CC(=O)N1C"
  targetUnderTest: "Substance-P receptor (Homo sapiens)"
  groupLabel: "N"
- structureString: "C[C@@H](O[C@H]1CCn2c(O)nnc2C[C@@H]1c1ccc(F)cc1)c1cc(C(F)(F)F)cc(C(F)(F)F)c1"
  targetUnderTest: "Substance-P receptor (Homo sapiens)"
  groupLabel: "Y"

Read the next record carefully.
Is 0.3 nM strictly greater than the compound's reported IC50? compound: C[C@@H](O[C@H]1CCc2nccn2C[C@@H]1c1ccc(F)cc1)c1cc(C(F)(F)F)cc(C(F)(F)F)c1
Y
